- assay_overview: Stability in human liver microsomes assessed as parent compound remaining at 1 uM preincubated for 5 mins followed by NADPH addition and measured after 30 mins by LC-MS/MS analysis
- Type: ADME, Microsome
- experimental_conditions: time 35 min, read-out: Stability
measured_property: remaining at 0.5 h, 1 µM (%)
One number for each entry, in %.

Ask | Which measured remaining at 0.5 h, 1 µM value corresponds to "Cc1c(COc2ccc(CNC(CO)CO)cc2Cl)cccc1-c1cccc2c(Nc3ccc(CNC(CO)CO)cc3Cl)nsc12" ?
Reply | 74.2

---

- assay_overview: Stability in human liver microsomes assessed as parent compound remaining at 1 uM preincubated for 5 mins followed by NADPH addition and measured after 60 mins by LC-MS/MS analysis
- Assay type: ADME, Microsome
- experimental_conditions: time 65 min, read-out: Stability
measured_property: remaining at 1 h, 1 µM (%)
Give bare numbers, in %.

Ask | Which remaining at 1 h, 1 µM reading was recorded for the molecule "Cc1c(COc2ccc(CNC(CO)CO)cc2Cl)cccc1-c1cccc2c(Nc3ccc(CNC(CO)CO)cc3Cl)nsc12" ?
Reply | 63.4

---

- assay_overview: Cmax in ICR mouse at 1 mg/kg, iv by LC-MS/MS analysis
- Assay type: ADME, organism-based
- experimental_conditions: in vivo
measured_property: Cmax (ng/mL)
Give bare numbers, in ng/mL.

Ask | Any idea what Cmax was measured for "Cc1c(COc2ccc(CNC(CO)CO)cc2Cl)cccc1-c1cccc2c(Nc3ccc(CNC(CO)CO)cc3Cl)nsc12" ?
Reply | 264

---

- assay_overview: Half-life in ICR mouse at 10 mg/kg, po by LC-MS/MS analysis
- Type: ADME, organism-based
- experimental_conditions: in vivo
measured_property: half-life

Ask | Dear colleague, I am looking for the recorded half-life of the following molecule: "Cc1c(COc2ccc(CNC(CO)CO)cc2Cl)cccc1-c1cccc2c(Nc3ccc(CNC(CO)CO)cc3Cl)nsc12"
Reply | 1.9 h

---

- assay_overview: Oral bioavailability in ICR mouse at 10 mg/kg by LC-MS/MS analysis
- Format: ADME, organism-based
- experimental_conditions: in vivo
measured_property: bioavailability (%)
One number for each entry, in %.

Ask | // lookup bioavailability for "Cc1c(COc2ccc(CNC(CO)CO)cc2Cl)cccc1-c1cccc2c(Nc3ccc(CNC(CO)CO)cc3Cl)nsc12"
Reply | 3.5

---

- assay_overview: Half-life in ICR mouse at 1 mg/kg, iv by LC-MS/MS analysis
- Type: ADME, organism-based
- experimental_conditions: in vivo
measured_property: half-life (h)
One number for each entry, in h.

Ask | Quick one: half-life of "Cc1c(COc2ccc(CNC(CO)CO)cc2Cl)cccc1-c1cccc2c(Nc3ccc(CNC(CO)CO)cc3Cl)nsc12" ?
Reply | 7.76

---

- assay_overview: Initial plasma concentration in ICR mouse at 1 mg/kg, iv by LC-MS/MS analysis
- Format: ADME, organism-based
measured_property: C0 (ng/mL)
Give bare numbers, in ng/mL.

Ask | Look at this compound and give its reported C0. "Cc1c(COc2ccc(CNC(CO)CO)cc2Cl)cccc1-c1cccc2c(Nc3ccc(CNC(CO)CO)cc3Cl)nsc12"
Reply | 530

---

- assay_overview: Stability in human liver microsomes assessed as parent compound remaining at 1 uM preincubated for 5 mins followed by NADPH addition and measured after 5 mins by LC-MS/MS analysis
- Assay type: ADME, Microsome
- experimental_conditions: time 10 min, read-out: Stability
measured_property: remaining at 5 min, 1 µM (%)
Give bare numbers, in %.

Ask | Find the recorded remaining at 5 min, 1 µM belonging to "Cc1c(COc2ccc(CNC(CO)CO)cc2Cl)cccc1-c1cccc2c(Nc3ccc(CNC(CO)CO)cc3Cl)nsc12" and report it.
Reply | 101
